Subject Of Test: HLA-A*24:02
Assay Details: IEDB peptide-MHC binding, purified MHC/competitive/radioactivity; filed as Kd, often an IC50 or EC50 that approximates it; bounds were set here for any values at or beyond the usual limits of such assays
Experimental Conditions: source organism: Mammarenavirus lassaense
Reported Metric: pKd
// scale note: pKd = -log10(conc_M); give the bare number

Request: GET /values?readout=pKd&system=HLA-A*24:02&item= "VPVHLCNLI"
Response: 5.24

###

Subject Of Test: HLA-A*01:01
Assay Details: IEDB peptide-MHC binding, purified MHC/competitive/radioactivity; filed as Kd, often an IC50 or EC50 that approximates it; bounds were set here for any values at or beyond the usual limits of such assays
Experimental Conditions: source organism: Mammarenavirus juninense
Reported Metric: Kd (µM)
Field: numeric (µM). Do not append units.

Request: GET /values?readout=Kd&system=HLA-A*01:01&item= "LDHVNTLHF"
Response: 19.5
